Documented gMFIr Cyno NK cells across a set of binders
Tested target: T1, cynomolgus PVRIG on cells (cynomolgus, UniProt A0A2K5WVV8 41-322)
T1 construct: whole, on cells; also called cPVRIG; expi cPVRIG cells
T1 sequence: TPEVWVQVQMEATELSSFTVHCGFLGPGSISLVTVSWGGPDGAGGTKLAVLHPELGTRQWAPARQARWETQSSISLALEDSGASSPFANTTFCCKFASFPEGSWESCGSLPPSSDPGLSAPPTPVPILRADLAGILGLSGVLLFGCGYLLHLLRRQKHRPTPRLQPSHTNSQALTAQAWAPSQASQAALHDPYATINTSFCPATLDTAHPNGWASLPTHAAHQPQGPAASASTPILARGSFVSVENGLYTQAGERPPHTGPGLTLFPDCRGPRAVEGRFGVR
Assay text: FACS, cyno PBMC, NK cells, 10ug/ml
# print the numeric value only

These solved cases illustrate the format of a correct answer.
Binder: CHA.7.516 (antibody, V domains shown) VH: QVQLQQSGPELVRPGVSVKISCKVSGYTFTDYVMHWVKQSHAKSLEWIGIISPYSGNTNYNQNFKGKATMTVDKSSSTAYMALARLTSEDSAIYYCAREGDLPMFAYWGQGTLVTVSA VL: QIVLTQSPTIMSASPGEKVTMTCSASSSVSYIYWYQQNPGSSPRLLIYDTSILASGVPFRFSGSGSGTSYSLTISRMEAEDAATYYCQQWTSYPLTFGSGTKLELK
gMFIr Cyno NK cells: 1.76
//
Binder: CHA.7.537 (antibody, V domains shown) VH: QVQLKESGPGLVAPSQSLSITCTVSGFSLIGHGVNWIRQPPGKGLEWLGVIWGDGNTDYNSALKSRLSISKDNSKSQVFLKMNSLQTDDTARYFCAVNSAMDYWGQGTAVTVSS VL: NIVMTQSPKSMSMSVGERVTLNCTASENVASFVSWYQQKPEQSPKLLIYGTSNRYTGVPDRFTGSGSATDFTLTISSVQAEDLGDYHCGQSYNYPFTFGSGTKLEIE
gMFIr Cyno NK cells: 1.18
//
Binder: CHA.7.530 (antibody, V domains shown) VH: QVQLQQSGAELMRPGTSVKVSCKASGYAFTNHLIEWIKQRPGQGLEWIGVINPGSDSTDYNEKFKDKATLTADKSSSTAYMQLSSLTSDDSAVYFCARSLYYNSWFVYWGQGTLVTVSA VL: DIQMTQSPASLSASVGETVTITCRASENIYSYLAWYQQKRGKSPQLLVYNAKTLVEGVPSRFSGSGSGTQFSLKINSLQPEDFGSYYCQHHYGTPYTFGGGTKLEIK
gMFIr Cyno NK cells: 1.73

Now consider the entry below.
Exercise: Which gMFIr Cyno NK cells is listed for CHA.7.524 (antibody, V domains shown) VH: QVQLQQSGPEVVRPGVSVKISCKGSGYKFPDYVMHWVKQSHAKSLEWIGIISIYSGNTNYNQKFKGKATMTVDKSSSTAYMELARLTSEDSAIYYCAREGDLPMFAYWGQGTLVTVSA VL: QIVLTQSPAIMSASPGEKVTMTCNASSSVSYMYWYQQKPISSPRLLIYDTSNLASGVPVRFSGSGSGTSYSLTIGRMEAEDAATYYCQQWSSYPLTFGAGTKVEVK ?
Key: 1.78
